As shown below, each of these compounds has a reported relative viability value.
# System: NCI-H2342
# assay info: relative viability (nuclei count vs DMSO), 5 days (fraction); higher = more cells survive
# measurement conditions: first compound 0.005 µM
Provide a numeric answer; units are not to be included.

COc1cc2nccc(Oc3ccc(NC(=O)Nc4cc(C)on4)c(Cl)c3)c2cc1OC [Tivozanib] + O=C(c1cc(Cc2n[nH]c(=O)c3ccccc23)ccc1F)N1CCN(C(=O)C2CC2)CC1 [Olaparib] (partner 8 µM)
0.433

Now take the following compound into account.
query: If you can, please state the reported relative viability value of Nc1ccn([C@@H]2O[C@H](CO)[C@@H](O)[C@@H]2O)c(=O)n1 [Cytarabine] + COc1cc2c(Oc3ccc(NC(=O)C4(C(=O)Nc5ccc(F)cc5)CC4)cc3F)ccnc2cc1OCCCN1CCOCC1 [Foretinib] (partner 0.25 µM) .
result: 0.983
